- study-system: T1, Cdc13 (Saccharomyces cerevisiae, UniProt P32797 1-924)
- T1 sequence: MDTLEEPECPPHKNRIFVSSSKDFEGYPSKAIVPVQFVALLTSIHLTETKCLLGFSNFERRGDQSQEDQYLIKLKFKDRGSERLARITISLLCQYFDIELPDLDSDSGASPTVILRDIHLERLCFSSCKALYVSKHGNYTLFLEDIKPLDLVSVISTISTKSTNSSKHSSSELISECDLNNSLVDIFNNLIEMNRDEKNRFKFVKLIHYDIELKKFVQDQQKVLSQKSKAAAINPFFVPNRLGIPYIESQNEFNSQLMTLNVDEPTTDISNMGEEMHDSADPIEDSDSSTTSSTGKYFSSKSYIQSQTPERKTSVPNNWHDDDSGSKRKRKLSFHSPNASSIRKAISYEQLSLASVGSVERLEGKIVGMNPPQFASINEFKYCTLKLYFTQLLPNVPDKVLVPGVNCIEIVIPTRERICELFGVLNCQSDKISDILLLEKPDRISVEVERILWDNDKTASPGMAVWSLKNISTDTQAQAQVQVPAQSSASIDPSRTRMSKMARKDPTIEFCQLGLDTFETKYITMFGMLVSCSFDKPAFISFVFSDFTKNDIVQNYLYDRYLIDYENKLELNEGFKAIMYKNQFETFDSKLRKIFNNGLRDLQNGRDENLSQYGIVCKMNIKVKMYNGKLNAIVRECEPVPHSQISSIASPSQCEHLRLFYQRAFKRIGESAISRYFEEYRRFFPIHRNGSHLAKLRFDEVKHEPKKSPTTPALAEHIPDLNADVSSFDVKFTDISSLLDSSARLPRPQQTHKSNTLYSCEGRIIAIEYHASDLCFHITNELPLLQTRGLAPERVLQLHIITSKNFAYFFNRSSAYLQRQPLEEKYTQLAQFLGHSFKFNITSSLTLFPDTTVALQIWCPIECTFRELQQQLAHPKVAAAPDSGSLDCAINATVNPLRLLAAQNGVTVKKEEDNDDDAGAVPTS
- measurement-description: EMSA
reported-property: Kd

What Kd value was documented for this binder, Tel14 (dsDNA) DNA 1: ATAATGATAAGACGTAGAGTGGGTGTGTGTGTGGGGTGGT DNA 2: ACACCCACTCTACGTCTTATCATTAT ?
~5 nM

Give its Kd value. Item: ds26 (dsDNA) DNA 1: ATAATGATAAGACGTAGAGTGGGTGT DNA 2: ACACCCACTCTACGTCTTATCATTAT
~300 nM

Query (binder): Tel7 (dsDNA) DNA 1: ATAATGATAAGACGTAGAGTGGGTGTGTGTGTG DNA 2: ACACCCACTCTACGTCTTATCATTAT ; field requested: Kd
~20 nM

State the recorded Kd for this entry: Tel22 (dsDNA) DNA 1: ATAATGATAAGACGTAGAGTGGGTGTGTGTGTGGGGTGGTGTGTGTGG DNA 2: ACACCCACTCTACGTCTTATCATTAT
< 2.5 nM
